Just for reference, patent US20170008955A1 is where these values come from.

molecular target: T1, cSNK:BSA conjugate (bovine, head-to-tail cyclized; conjugated to BSA carrier); assay: BLI 2:1 fit, site 2 (kdis2); 25 nM row
T1 construct: also called BSA-cSNK
T1 sequence (P02769 25-607 limits assumed): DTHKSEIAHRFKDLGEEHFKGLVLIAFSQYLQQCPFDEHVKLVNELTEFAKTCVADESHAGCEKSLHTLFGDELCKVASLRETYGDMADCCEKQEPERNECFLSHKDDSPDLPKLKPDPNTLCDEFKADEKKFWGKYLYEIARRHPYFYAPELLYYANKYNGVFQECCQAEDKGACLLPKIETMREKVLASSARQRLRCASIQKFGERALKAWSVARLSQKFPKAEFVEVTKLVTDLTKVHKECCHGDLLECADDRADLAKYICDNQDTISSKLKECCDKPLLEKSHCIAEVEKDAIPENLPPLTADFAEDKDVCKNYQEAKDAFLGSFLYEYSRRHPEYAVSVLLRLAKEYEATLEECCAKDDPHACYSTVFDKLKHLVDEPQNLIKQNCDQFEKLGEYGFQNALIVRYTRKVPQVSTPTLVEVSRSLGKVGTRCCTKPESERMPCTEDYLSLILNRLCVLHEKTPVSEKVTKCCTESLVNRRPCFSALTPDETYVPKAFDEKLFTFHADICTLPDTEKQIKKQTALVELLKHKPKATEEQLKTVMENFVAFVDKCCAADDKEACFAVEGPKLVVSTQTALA
Reported endpoint: koff (s⁻¹)
One number for each entry, in s⁻¹.

Worked examples, 4 binders total:
hu5E3-IgG2 (antibody, V domains shown, human IgG2/kappa; also called humanized 5E3 IgG2) VH: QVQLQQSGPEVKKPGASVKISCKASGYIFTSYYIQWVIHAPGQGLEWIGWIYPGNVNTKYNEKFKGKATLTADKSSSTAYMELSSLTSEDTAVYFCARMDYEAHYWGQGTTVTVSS VL: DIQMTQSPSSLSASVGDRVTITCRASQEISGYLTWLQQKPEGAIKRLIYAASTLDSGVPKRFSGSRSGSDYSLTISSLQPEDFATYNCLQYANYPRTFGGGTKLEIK = 0.0338
hu5E3-IgG1 (antibody, V domains shown, human IgG1/kappa; also called humanized 5E3 IgG1; IHA variant) VH: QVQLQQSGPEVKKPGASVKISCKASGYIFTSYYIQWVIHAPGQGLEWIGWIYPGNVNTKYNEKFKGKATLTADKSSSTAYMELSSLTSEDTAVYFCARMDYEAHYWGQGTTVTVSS VL: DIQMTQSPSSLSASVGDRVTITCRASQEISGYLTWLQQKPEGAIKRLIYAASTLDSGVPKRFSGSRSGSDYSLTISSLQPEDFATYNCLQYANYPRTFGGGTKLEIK = 0.012
rehu5E3-IgG4 (antibody, V domains shown, human IgG4/kappa; also called IgG4 rehu version) VH: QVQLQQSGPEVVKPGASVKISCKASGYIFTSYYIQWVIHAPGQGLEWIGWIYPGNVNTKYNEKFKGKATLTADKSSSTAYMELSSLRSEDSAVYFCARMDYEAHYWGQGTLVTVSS VL: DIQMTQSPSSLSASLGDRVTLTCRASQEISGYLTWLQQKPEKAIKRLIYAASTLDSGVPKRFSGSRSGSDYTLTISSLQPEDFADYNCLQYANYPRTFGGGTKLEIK = 0.0175
murine monoclonal antibody 5E3 (antibody, V domains shown, mouse antibody of the 5E3 hybridoma; also called murine 5E3; m5E3) VH: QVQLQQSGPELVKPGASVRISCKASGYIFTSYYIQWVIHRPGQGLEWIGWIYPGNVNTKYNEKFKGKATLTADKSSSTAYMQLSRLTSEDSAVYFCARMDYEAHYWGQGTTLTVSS VL: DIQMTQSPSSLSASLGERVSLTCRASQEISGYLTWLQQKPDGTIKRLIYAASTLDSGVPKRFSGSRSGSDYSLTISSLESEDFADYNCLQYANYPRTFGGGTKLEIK = 0.0226

With those in mind, consider the next binder.
Req: Could you tell me which koff is on file for hu5E3-IgG4 (antibody, V domains shown, human IgG4/kappa; also called humanized 5E3 IgG4) VH: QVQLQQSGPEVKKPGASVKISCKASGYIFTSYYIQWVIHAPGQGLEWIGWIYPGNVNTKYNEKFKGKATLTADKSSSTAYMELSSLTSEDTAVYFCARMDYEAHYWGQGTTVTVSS VL: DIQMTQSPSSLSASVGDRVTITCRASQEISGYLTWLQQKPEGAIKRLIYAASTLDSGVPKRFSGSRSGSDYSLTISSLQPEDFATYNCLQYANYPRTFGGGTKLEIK ?
Resp: 0.0229
